measurement_target: T1, cynomolgus SIRPα extracellular domain + His-tag (EGM_02252) (cynomolgus monkey)
T1 construct: also called CySIRPα EGM_02252; cynoSIRPα
T1 chain: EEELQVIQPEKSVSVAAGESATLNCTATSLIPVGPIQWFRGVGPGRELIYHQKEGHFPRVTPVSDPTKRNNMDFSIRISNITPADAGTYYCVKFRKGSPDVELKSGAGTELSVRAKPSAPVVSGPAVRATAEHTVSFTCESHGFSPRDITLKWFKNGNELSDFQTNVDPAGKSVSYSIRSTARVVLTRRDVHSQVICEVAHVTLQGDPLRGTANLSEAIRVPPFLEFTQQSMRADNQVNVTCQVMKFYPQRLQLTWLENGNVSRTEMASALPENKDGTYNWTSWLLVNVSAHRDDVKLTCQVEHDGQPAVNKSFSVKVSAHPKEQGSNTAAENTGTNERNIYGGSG
assay_remarks: SPR, Ab captured, ECD-His analyte
// Kd lookup, one value per entry
Only the number, expressed in nM, is required.

- binder: "Antibody A7 (antibody, human IgG1, kappa, L234A L235A, V domains shown) VH: EVQLVESGGGLVQPGGSLRLSCAASGFTLSSYDMHWVRQATGKGLEWVSAIGTAGDTYYTGSVKGRFTISRENAKNSLYLQMNSLRAGDTAVYYCVRGGVWDDAFDIWGQGTMVTVSS VL: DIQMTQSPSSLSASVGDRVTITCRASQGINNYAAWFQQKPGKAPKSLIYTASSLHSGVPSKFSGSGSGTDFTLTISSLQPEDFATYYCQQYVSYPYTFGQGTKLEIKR"
  property_measured: "Kd"
  quantitative_result: 609
- binder: "Antibody A16 (antibody, human IgG1, kappa, L234A L235A, V domains shown) VH: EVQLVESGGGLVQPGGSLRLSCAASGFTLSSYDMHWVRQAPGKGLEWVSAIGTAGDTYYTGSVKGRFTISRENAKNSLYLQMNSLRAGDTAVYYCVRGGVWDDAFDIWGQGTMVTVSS VL: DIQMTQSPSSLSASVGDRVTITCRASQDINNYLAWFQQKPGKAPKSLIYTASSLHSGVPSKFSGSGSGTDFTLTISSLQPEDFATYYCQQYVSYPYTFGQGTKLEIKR"
  property_measured: "Kd"
  quantitative_result: 225
- binder: "Antibody A9 (antibody, human IgG1, kappa, L234A L235A, V domains shown) VH: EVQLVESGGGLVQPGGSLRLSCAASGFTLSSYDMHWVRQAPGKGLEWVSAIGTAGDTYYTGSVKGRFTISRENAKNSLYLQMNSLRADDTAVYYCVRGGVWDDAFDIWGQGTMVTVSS VL: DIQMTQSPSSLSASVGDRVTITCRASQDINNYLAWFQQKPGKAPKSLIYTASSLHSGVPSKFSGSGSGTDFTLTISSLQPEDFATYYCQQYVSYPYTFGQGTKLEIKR"
  property_measured: "Kd"
  quantitative_result: 227
- binder: "Antibody A2 (antibody, human IgG1, kappa, L234A L235A, V domains shown) VH: EVQLVESGGGLVQPGGSLRLSCAASGFTLSSYDMHWVRQATGKGLEWVSAIGTAGDTYYTGSVKGRFTISRENAKNSLYLQMNSLRAADTAVYYCVRGGVWDDAFDIWGQGTMVTVSS VL: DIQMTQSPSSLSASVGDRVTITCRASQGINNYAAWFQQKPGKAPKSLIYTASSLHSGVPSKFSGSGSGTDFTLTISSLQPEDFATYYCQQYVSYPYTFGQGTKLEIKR"
  property_measured: "Kd"
  quantitative_result: 584

Query: Query (binder): Antibody A3 (antibody, human IgG1, kappa, L234A L235A, V domains shown) VH: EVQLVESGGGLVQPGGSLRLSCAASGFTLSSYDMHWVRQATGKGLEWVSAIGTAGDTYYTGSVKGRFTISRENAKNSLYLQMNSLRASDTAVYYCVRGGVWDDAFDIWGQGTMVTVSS VL: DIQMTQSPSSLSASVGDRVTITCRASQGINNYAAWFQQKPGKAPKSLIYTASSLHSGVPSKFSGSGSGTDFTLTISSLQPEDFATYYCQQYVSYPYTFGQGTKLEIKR ; field requested: Kd
Reply: 571
